- Test system: SU-DHL-2
- Protocol Notes: Combined drug treatment cell viability (CellTiter-Glo), ibrutinib with BET inhibitors, SU-DHL-2
- Format: cell-based
- Study Conditions: ibrutinib 10000 nM with I-BET151 2 uM, JQ1 100 nM, OTX015 1 uM (Table 2) or medium alone (row), 3 days
For each of the molecules below, state its luminescent signals.
Answers are plain numbers.

[[record]]
molecular_string = "COc1cc2c(cc1-c1c(C)noc1C)ncc1[nH]c(=O)n([C@H](C)c3ccccn3)c12"
recorded_value = 585.813

[[record]]
molecular_string = "Cc1sc2c(c1C)C(c1ccc(Cl)cc1)=N[C@@H](CC(=O)Nc1ccc(O)cc1)c1nnc(C)n1-2"
recorded_value = 782.836

[[record]]
molecular_string = "Cc1sc2c(c1C)C(c1ccc(Cl)cc1)=N[C@@H](CC(=O)OC(C)(C)C)c1nnc(C)n1-2"
recorded_value = 3706.648


Here's the next entry for you.
Ask: Item: C=CC(=O)N1CCC[C@@H](n2nc(-c3ccc(Oc4ccccc4)cc3)c3c(N)ncnc32)C1 Test system: SU-DHL-2 Read-out: luminescent signals Value: ?
Reply: 111485.8

----------
- System: U-2932
- Protocol Notes: Combined drug treatment cell viability (CellTiter-Glo), ibrutinib with BET inhibitors, U-2932
- Assay type: cell-based
- Study Conditions: U2932; ibrutinib 80 nM with I-BET151 200 nM, JQ1 20 nM, OTX015 50 nM (Table 2) or medium alone (row); 3 days
Measurement Type: luminescent signals
Answers are plain numbers.

As a guide, the following entries are already answered.
[[record]]
molecular_string = "COc1cc2c(cc1-c1c(C)noc1C)ncc1[nH]c(=O)n([C@H](C)c3ccccn3)c12"
recorded_value = 43659.14

[[record]]
molecular_string = "Cc1sc2c(c1C)C(c1ccc(Cl)cc1)=N[C@@H](CC(=O)Nc1ccc(O)cc1)c1nnc(C)n1-2"
recorded_value = 44565.57


Answer for every listed entry: what is its luminescent signals? The entries follow.
1. C=CC(=O)N1CCC[C@@H](n2nc(-c3ccc(Oc4ccccc4)cc3)c3c(N)ncnc32)C1
2. Cc1sc2c(c1C)C(c1ccc(Cl)cc1)=N[C@@H](CC(=O)OC(C)(C)C)c1nnc(C)n1-2

Reply:
1. 49777.58
2. 49232.14

----------
For each of the compounds below, state its luminescent signals.
- Tested on: OCI-LY3
- Protocol Notes: Combined drug treatment cell viability (CellTiter-Glo), ibrutinib with BET inhibitors, OCI-LY3
- Assay type: cell-based
- Study Conditions: OCI-LY-3; ibrutinib […] with I-BET151 5 uM, JQ1 1 uM, OTX015 1 uM or medium alone (row); 3 days
Answers are plain numbers.

As a guide, the following entries are already answered.
[[record]]
compound = "COc1cc2c(cc1-c1c(C)noc1C)ncc1[nH]c(=O)n([C@H](C)c3ccccn3)c12 [I-BET151]"
recorded_value = 12962.63

[[record]]
compound = "C=CC(=O)N1CCC[C@@H](n2nc(-c3ccc(Oc4ccccc4)cc3)c3c(N)ncnc32)C1 [ibrutinib]"
recorded_value = 59441.78

[[record]]
compound = "Cc1sc2c(c1C)C(c1ccc(Cl)cc1)=N[C@@H](CC(=O)OC(C)(C)C)c1nnc(C)n1-2 [JQ1]"
recorded_value = 22582.26


Here's the next entry for you.
Ask: Item: Cc1sc2c(c1C)C(c1ccc(Cl)cc1)=N[C@@H](CC(=O)Nc1ccc(O)cc1)c1nnc(C)n1-2 [OTX015] Test system: OCI-LY3 Read-out: luminescent signals Value: ?
Reply: 12918.02

Ref: patent US20160022684A1
